Values were extracted from PubChem BioAssay (NCI).

Reported TGI values follow for various molecules
Test system: SK-MEL-2 melanoma
Assay Overview: NCI tumour cell line growth inhibition, 48 h

Example entries and their recorded answers appear below.
> print(dat)
                                   molecule  assay.endpoint     value
1  CC1=C2C(=O)O[C@@H](c3ccoc3)[C@]2(C)CCC1=O             TGI  > 100 µM
2  Oc1c(C2=NNC(c3cccs3)C2)ccc2ccccc12 (stereo unspecified)             TGI  > 100 µM
3  O/N=C1/C(=C/c2ccc(F)cc2)CCCC1C(NO)c1ccc(F)cc1 (stereo unspecified)             TGI  > 100 µM
4  NC(N)=NS(=O)(=O)c1ccc(NC(=O)c2cccc3c(Nc4ccc(S(=O)(=O)N=C(N)N)cc4)c4ccc(Cl)cc4nc23)cc1             TGI  > 100 µM
5  O=C(c1ccc(Cl)cc1Cl)N(Cc1cccnc1)C(=S)N(Cc1cccnc1)C(=O)c1ccc(Cl)cc1Cl             TGI   13.7 µM

Asked: Need TGI of C[C@H](CCC1=NCCN1)[C@H]1CC[C@H]2[C@@H]3[C@H](O)C[C@@H]4C[C@H](O)CC[C@]4(C)[C@H]3CC[C@]12C , thanks.
Given back: 29.9 µM

Asked: Need TGI of CCOC(=O)c1c(O)[nH]c(=O)c(CC)c1C , thanks.
Given back: > 100 µM

Asked: Need TGI of C[C@@H](c1ccc2nccn2c1)n1nnc2ncc(-c3cnn(C)c3)nc21 , thanks.
Given back: > 100 µM

Asked: Need TGI of CC(NC1=CC(=O)c2ncccc2C1=O)C(O)c1ccccc1 (stereo unspecified) , thanks.
Given back: 17.9 µM

Asked: Need TGI of Cn1ncc2cc3c(Nc4ccc(Cl)cc4)cccc3nc21 , thanks.
Given back: 51.8 µM

Asked: Need TGI of CC(=O)Oc1c(C)n(CCCl)ccc1=O , thanks.
Given back: > 100 µM

Asked: Need TGI of ClC(Cl)(Cl)C1CCOC1n1nc2ccccc2n1 (stereo unspecified) , thanks.
Given back: > 100 µM

Asked: Need TGI of O/N=c1/ccn(O)c2ccccc12 , thanks.
Given back: 3.64 µM

Asked: Need TGI of Nc1nc(N)[n+]([O-])c(N)c1NCO , thanks.
Given back: > 100 µM

* * *

System: SNB-19 CNS
Assay Overview: NCI tumour cell line growth inhibition, 48 h
Assay Endpoint: TGI

> print(dat)
                                   compound      value
1  O=C1C2CC(Cl)C(SSC3CC4C(=O)N(SC(Cl)(Cl)C(Cl)Cl)C(=O)C4CC3Cl)CC2C(=O)N1SC(Cl)(Cl)C(Cl)Cl (stereo not given)    12.7 µM
2  O/N=C1\CCc2cc(-c3nc(C4CCNCC4)[nH]c3-c3ccncc3)ccc21    > 25 µM
3  COc1ccc(-c2cc(-c3ccc(Nc4nc(Nc5ccc(Cl)cc5)nc(Nc5ccc(Cl)cc5)n4)cc3)nc(N)c2C#N)cc1  > 24.1 µM

Asked: Reported TGI for SNB-19 CNS, given O=c1c(Cl)nnc2sc3ccccc3n12 ?
Given back: > 100 µM

Asked: Reported TGI for SNB-19 CNS, given Cc1nc2c(o1)C(=O)c1ccccc1C2=NC1CCCCC1N (stereo not given) ?
Given back: 2.1 µM

Asked: Reported TGI for SNB-19 CNS, given OB([O][Hg][c]1ccccc1)[O][Hg][c]1ccccc1 ?
Given back: 2.84 µM

Asked: Reported TGI for SNB-19 CNS, given Cn1nc(-c2ccccc2NC(=O)C(F)(F)F)c(=O)n(C)c1=S ?
Given back: > 100 µM

Asked: Reported TGI for SNB-19 CNS, given O=C1C=C(N2CCCC2)C=C(N2CCCC2)C1 ?
Given back: > 100 µM

Asked: Reported TGI for SNB-19 CNS, given Cc1ccc(/C=C2\N=C(N3CCCCC3)NC2=O)cc1 ?
Given back: > 100 µM

Asked: Reported TGI for SNB-19 CNS, given COc1cc2cc(Oc3ccc(NC(=O)Nc4ccc(F)c(C(F)(F)F)c4)cc3)c(C)nc2cc1OCCN1CCCCC1 ?
Given back: 3.29 µM

Asked: Reported TGI for SNB-19 CNS, given CCCCCCCCCCCCCCCC(=O)ON1C(=S)NC(C)(c2ccccc2)C1=S (stereo not given) ?
Given back: > 100 µM

Asked: Reported TGI for SNB-19 CNS, given O=C1NCC2(CCNCC2)N1c1ccccc1 ?
Given back: > 100 µM

Asked: Reported TGI for SNB-19 CNS, given ClC(=Nc1cccc2ccccc12)N(c1ccccc1)c1ccccc1 ?
Given back: > 100 µM

Asked: Reported TGI for SNB-19 CNS, given COc1ccc(/C(=C/c2cc(OC)c(OC)c(OC)c2)[N+](=O)[O-])cc1 ?
Given back: 3.64 µM

Asked: Reported TGI for SNB-19 CNS, given Cc1ccc(S(=O)(=O)NC(CCC(=O)Nc2ccc(Cl)cc2)C(=O)Nc2ccc(Cl)cc2)cc1 (stereo not given) ?
Given back: 4.4 µM

Asked: Reported TGI for SNB-19 CNS, given CNNC1=NS(=O)(=O)c2cc(C)c(Cl)cc2S1 ?
Given back: > 10 µM

Asked: Reported TGI for SNB-19 CNS, given N#Cc1cccc(C2ON=C(c3ccc([N+](=O)[O-])cc3)N2C23CC4CC(CC(C4)C2)C3)c1 (stereo not given) ?
Given back: > 100 µM

Asked: Reported TGI for SNB-19 CNS, given N[C@H]1C2C3CC4C5CC(C42)C1(c1ccccc1)C53 (stereo not given in full) ?
Given back: > 100 µM

Asked: Reported TGI for SNB-19 CNS, given O=C(c1ccccc1)c1nn(-c2ccc(Cl)cc2)c2nc3nc(-c4ccccc4)cc(=O)n3nc12 ?
Given back: > 100 µM

Asked: Reported TGI for SNB-19 CNS, given Cn1cc(-c2ccc(=O)n(Cc3cccc(-c4ncc(OCCN5CCOCC5)cn4)c3)n2)cn1 ?
Given back: > 100 µM
